Every entry's value here was drawn from ChEMBL document CHEMBL1817642.

- Tested on: Staphylococcus aureus
- Method Summary: Antibacterial activity against Staphylococcus aureus NCIM 2122 after 24 hrs by NCCLS method
- Format: functional
- Measurement Parameters: NCIM 2122, 24 h
Quantity Kind: MIC90 (mg/L)
Answer in mg/L, number only, no unit symbol.

Solved cases (5 shown):
{"columns": ["Smiles String", "Value Unit", "MIC90"],
 "data": [
  ["CC(C)(C)[Si](C)(C)O[C@H]1CC[C@@]2(C)C(=CC[C@H]3[C@@H]4CC[C@H]([C@@](C)(O)c5ccccn5)[C@@]4(C)CC[C@@H]32)C1", "mg/L", 8],
  ["CN(C)[C@@H]1C(O)=C(C(N)=O)C(=O)[C@@]2(O)C(O)=C3C(=O)c4c(O)cccc4[C@@](C)(O)[C@H]3C[C@@H]12", "mg/L", 16],
  ["C[C@]12CC[C@H]3[C@@H](CC=C4C[C@@H](O)CC[C@@]43C)[C@@H]1CC[C@@H]2[C@@](C)(O)c1ccccn1", "mg/L", 8],
  ["CC(=O)[C@H]1[C@H](c2ccccn2)C[C@H]2[C@@H]3CC=C4C[C@@H](OS(C)(C)C(C)(C)C)CC[C@]4(C)[C@H]3CC[C@@]21C", "mg/L", 16],
  ["CC(C)(C)[Si](C)(C)O[C@H]1CC[C@@]2(C)C(=CC[C@H]3[C@@H]4CC[C@H]([C@@](C)(O)c5nccs5)[C@@]4(C)CC[C@@H]32)C1", "mg/L", 16]
]}

Now for another entry.
For record C[C@]12CC[C@H](O)C[C@@H]1CC[C@@H]1[C@@H]2CC[C@@]2(C)[C@H]1CC[C@@H]2[C@@](C)(O)c1ccccn1 the listed MIC90 is 8

* * *

- Test system: Fusarium oxysporum
- Method Summary: Antifungal activity against Fusarium oxysporum isolate NCL5 after 48 hrs by broth dilution method
- Format: functional
- Measurement Parameters: isolate NCL5, 48 h
# maps each entry to its MIC90
Answer in µg/mL, number only, no unit symbol.

Solved cases (7 shown):
{"columns": ["Smiles String", "Value Unit", "Numeric Result"],
 "data": [
  ["CC(=O)O[C@H]1CC[C@@]2(C)C(=CC[C@H]3[C@@H]4CC[C@H]([C@@](C)(O)c5ccccn5)[C@@]4(C)CC[C@@H]32)C1", "µg/mL", 64],
  ["CC(=O)O[C@H]1CC[C@@]2(C)C(=CC[C@H]3[C@@H]4C[C@@H](c5ccccn5)[C@H](C(C)=O)[C@@]4(C)CC[C@@H]32)C1", "µg/mL", 32],
  ["CC(C)(C)[Si](C)(C)O[C@H]1CC[C@@]2(C)C(=CC[C@H]3[C@@H]4CC[C@H]([C@@](C)(O)c5ccccn5)[C@@]4(C)CC[C@@H]32)C1", "µg/mL", 8],
  ["C[C@@H]1[C@H](O)[C@@H](C)/C=C/C=C/C=C/C=C/C=C/C=C/C=C/[C@H](O[C@@H]2O[C@H](C)[C@@H](O)[C@H](N)[C@@H]2O)C[C@@H]2O[C@](O)(C[C@@H](O)C[C@@H](O)[C@H](O)CC[C@@H](O)C[C@@H](O)CC(=O)O[C@H]1C)C[C@H](O)[C@H]2C(=O)O", "µg/mL", 16],
  ["CC(=O)O[C@H]1CC[C@@]2(C)[C@@H](CC[C@@H]3[C@@H]2CC[C@@]2(C)[C@H]3CC[C@@H]2[C@@](C)(O)c2nccs2)C1", "µg/mL", 16],
  ["C[C@]12CC[C@H]3[C@@H](CC=C4C[C@@H](O)CC[C@@]43C)[C@@H]1CC[C@@H]2[C@@](C)(O)c1nccs1", "µg/mL", 64],
  ["OC(Cn1cncn1)(Cn1cncn1)c1ccc(F)cc1F", "µg/mL", 8]
]}

Now for another entry.
Record CC(C)(C)[Si](C)(C)O[C@H]1CC[C@@]2(C)[C@@H](CC[C@@H]3[C@@H]2CC[C@@]2(C)[C@H]3CC[C@@H]2[C@@](C)(O)c2ccccn2)C1 ; system Fusarium oxysporum; MIC90 = 32

* * *

- System: Candida albicans
- Method Summary: Antifungal activity against Candida albicans isolate NCL1 after 48 hrs by broth dilution method
- Format: functional
- Measurement Parameters: isolate NCL1, 48 h
Quantity Kind: MIC90

Solved cases (4 shown):
{"columns": ["Compound", "MIC90"],
 "data": [
  ["CC(C)(C)[Si](C)(C)O[C@H]1CC[C@@]2(C)C(=CC[C@H]3[C@@H]4CC[C@H]([C@@](C)(O)c5nccs5)[C@@]4(C)CC[C@@H]32)C1", "16 µg/mL"],
  ["OC(Cn1cncn1)(Cn1cncn1)c1ccc(F)cc1F [FLUCONAZOLE]", "32 µg/mL"],
  ["C[C@@H]1[C@H](O)[C@@H](C)/C=C/C=C/C=C/C=C/C=C/C=C/C=C/[C@H](O[C@@H]2O[C@H](C)[C@@H](O)[C@H](N)[C@@H]2O)C[C@@H]2O[C@](O)(C[C@@H](O)C[C@@H](O)[C@H](O)CC[C@@H](O)C[C@@H](O)CC(=O)O[C@H]1C)C[C@H](O)[C@H]2C(=O)O [AMPHOTERICIN B]", "2 µg/mL"],
  ["CC(=O)O[C@H]1CC[C@@]2(C)C(=CC[C@H]3[C@@H]4CC[C@H]([C@@](C)(O)c5nccs5)[C@@]4(C)CC[C@@H]32)C1", "> 64 µg/mL"]
]}

For record CC(=O)O[C@H]1CC[C@@]2(C)[C@@H](CC[C@@H]3[C@@H]2CC[C@@]2(C)[C@H]3CC[C@@H]2[C@@](C)(O)c2ccccn2)C1 the listed MIC90 is 16 µg/mL

* * *

# maps each entry to its MIC90
- Test system: Staphylococcus aureus
- Method Summary: Antibacterial activity against Staphylococcus aureus NCIM 2122 after 24 hrs by NCCLS method
- Type: functional
- Measurement Parameters: NCIM 2122, 24 h

Solved cases (2 shown):
{"columns": ["Smiles String", "Study System", "Result"],
 "data": [
  ["CC(=O)O[C@H]1CC[C@@]2(C)C(=CC[C@H]3[C@@H]4C[C@@H](c5ccccn5)[C@H](C(C)=O)[C@@]4(C)CC[C@@H]32)C1", "Staphylococcus aureus", "16 µg/mL"],
  ["C[C@]12CC[C@H](O)C[C@@H]1CC[C@@H]1[C@@H]2CC[C@@]2(C)[C@H]1CC[C@@H]2[C@@](C)(O)c1nccs1", "Staphylococcus aureus", "32 µg/mL"]
]}

Now for another entry.
For record CC(=O)O[C@H]1CC[C@@]2(C)[C@@H](CC[C@@H]3[C@@H]2CC[C@@]2(C)[C@H]3CC[C@@H]2[C@@](C)(O)c2nccs2)C1 the listed MIC90 is 16 µg/mL

* * *

# maps each entry to its MIC90
- Test system: Candida albicans
- Method Summary: Antifungal activity against Candida albicans isolate NCL1 after 48 hrs by broth dilution method
- Format: functional
- Measurement Parameters: isolate NCL1, 48 h
Answer in µg/mL, number only, no unit symbol.

{"columns": ["Smiles String", "Value Unit", "MIC90"],
 "data": [
  ["CC(=O)[C@H]1[C@H](c2ccccn2)C[C@H]2[C@@H]3CC=C4C[C@@H](OS(C)(C)C(C)(C)C)CC[C@]4(C)[C@H]3CC[C@@]21C", "µg/mL", 32]
]}

For record C[C@]12CC[C@H](O)C[C@@H]1CC[C@@H]1[C@@H]2CC[C@@]2(C)[C@H]1CC[C@@H]2[C@@](C)(O)c1ccccn1 the listed MIC90 is 32

* * *

- System: Benjaminiella poitrasii
- Method Summary: Antifungal activity against Benjaminiella poitrasii isolate NCL3 after 24 hrs by M38-P broth dilution method
- Format: functional
- Measurement Parameters: isolate NCL3, 24 h
Quantity Kind: MIC90 (µg/mL)
Answer in µg/mL, number only, no unit symbol.

{"columns": ["Smiles String", "Quantity Kind", "Numeric Result"],
 "data": [
  ["C[C@]12CC[C@H](O)C[C@@H]1CC[C@@H]1[C@@H]2CC[C@@]2(C)[C@H]1CC[C@@H]2[C@@](C)(O)c1ccccn1", "MIC90", 64],
  ["OC(Cn1cncn1)(Cn1cncn1)c1ccc(F)cc1F", "MIC90", 32]
]}

Now for another entry.
Record CC(=O)O[C@H]1CC[C@@]2(C)[C@@H](CC[C@@H]3[C@@H]2CC[C@@]2(C)[C@H]3CC[C@@H]2[C@@](C)(O)c2nccs2)C1 ; system Benjaminiella poitrasii; MIC90 = 16

* * *

# maps each entry to its MIC90
- Test system: Staphylococcus aureus
- Method Summary: Antibacterial activity against Staphylococcus aureus NCIM 2122 after 24 hrs by NCCLS method
- Format: functional
- Measurement Parameters: NCIM 2122, 24 h
Answer in µg/mL, number only, no unit symbol.

Solved cases (2 shown):
{"columns": ["Smiles String", "Study System", "MIC90 / µg/mL"],
 "data": [
  ["CC(C)(C)[Si](C)(C)O[C@H]1CC[C@@]2(C)[C@@H](CC[C@@H]3[C@@H]2CC[C@@]2(C)[C@H]3CC[C@@H]2[C@@](C)(O)c2ccccn2)C1", "Staphylococcus aureus", 16],
  ["CC(=O)O[C@H]1CC[C@@]2(C)[C@@H](CC[C@@H]3[C@@H]2CC[C@@]2(C)[C@H]3CC[C@@H]2[C@@](C)(O)c2ccccn2)C1", "Staphylococcus aureus", 16]
]}

Now for another entry.
For record CC(C)(C)[Si](C)(C)O[C@H]1CC[C@@]2(C)[C@@H](CC[C@@H]3[C@@H]2CC[C@@]2(C)[C@H]3CC[C@@H]2[C@@](C)(O)c2nccs2)C1 the listed MIC90 is 16
